Target: T1, human vascular endothelial growth factor receptor-2 Fc chimera (KDR-Fc) (human, UniProt P35968 20-764)
T1 construct: range 1-764; also called human VEGFR-2; VEGF-R2-Fc; not shown: human IgG1 Fc
T1 sequence (P35968 20-764 limits assumed, change not shown, form in doubt): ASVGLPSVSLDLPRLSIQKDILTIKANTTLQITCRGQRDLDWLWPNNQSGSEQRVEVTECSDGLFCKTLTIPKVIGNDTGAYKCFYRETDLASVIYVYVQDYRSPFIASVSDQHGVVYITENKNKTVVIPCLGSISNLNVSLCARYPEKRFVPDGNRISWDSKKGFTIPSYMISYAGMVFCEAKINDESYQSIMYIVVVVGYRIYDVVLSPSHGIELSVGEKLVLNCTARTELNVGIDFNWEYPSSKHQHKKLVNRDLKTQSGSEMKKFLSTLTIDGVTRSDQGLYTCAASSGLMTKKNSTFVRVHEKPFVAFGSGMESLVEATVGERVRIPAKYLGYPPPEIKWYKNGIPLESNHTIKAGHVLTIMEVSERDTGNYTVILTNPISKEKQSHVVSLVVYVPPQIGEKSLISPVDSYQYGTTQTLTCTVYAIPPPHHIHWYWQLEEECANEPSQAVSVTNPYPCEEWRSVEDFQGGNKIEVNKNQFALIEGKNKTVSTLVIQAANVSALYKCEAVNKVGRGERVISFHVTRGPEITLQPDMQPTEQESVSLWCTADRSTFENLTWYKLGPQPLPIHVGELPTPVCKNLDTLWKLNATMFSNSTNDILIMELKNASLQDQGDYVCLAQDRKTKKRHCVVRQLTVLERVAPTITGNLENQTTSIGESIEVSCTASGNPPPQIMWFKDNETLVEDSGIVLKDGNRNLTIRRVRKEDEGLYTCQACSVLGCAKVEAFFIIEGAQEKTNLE
Assay: radioactive equilibrium binding, 1 nM KDR-Fc
Procedure: To prepare ³⁵S-labeled binding proteins for analysis, mRNA was prepared as described above for RNA-protein fusion production but the linker ligation step was omitted. […] 50 μA of the reaction mixture and elution were dried onto a LumaPlate-96 (Packard) and the amount of ³⁵S on the plate was measured using a TopCount NXT instrument (Packard). […] Data was analyzed using the GraphPad Prizm software (GraphPad Software, Inc, San Diego, Calif.), fitted using a one site, non-linear binding equation.

binder: 2′Del C1 PR4 (designed binder, Del 1-8) EVVAATPTSLLISWRHPHFPTRYYRITYGETGGNSPVQEFTVPLQPPTATISGLKPGVDYTITGYAVTAGLDEHELLIPISINYRT
Binding to 1 nM KDR, % [%]: 32
--
binder: 3′A7 PR4 (designed binder, Del 1-8) EVVAATPTSLLISWRHPHFPTRYYRITYGETGGNSPVQEFTVPLQPPTATISGLKPGVDYTITGYAVTLSDSGHALFTPISINYRT
Binding to 1 nM KDR, % [%]: 34
--
binder: 3′G10 PR4 (designed binder, Del 1-8) EVVAATPTSLLISWRHPHFPTRYYRITYGETGGNSPVQEFTVPLQPPTATISGLKPGVDYTITGYAVTLTHNDHELLTPISINYRT
Binding to 1 nM KDR, % [%]: 30
